# Assay Overview: LD50 determined in the mouse (C. S. Weil method)
# Parameters: unit not given here
# Settings: in vivo, ip
Label Fulfilled when LD50 < 0.7; otherwise Not fulfilled.

CCOC(=O)c1ccc(NC(=O)CCN2CCN(c3ccccn3)CC2)cc1 = Fulfilled
O=C(CCN1CCN(c2ccccn2)CC1)Nc1ccc(O)cc1 = Not fulfilled
CC1CN(c2ccccn2)CCN1CCC(=O)Nc1ccc([N+](=O)[O-])cc1 (stereo not shown) = Fulfilled
N#Cc1ccc(NC(=O)CCN2CCN(c3ccccn3)CC2)cc1 = Fulfilled
Nc1ccc(NC(=O)CCN2CCN(c3ccccn3)CC2)cc1 = Not fulfilled
CC(=O)c1ccc(OCc2ccccc2)c(NC(=O)CCN2CCN(c3ccccn3)CC2)c1 = Not fulfilled

---

# Assay Overview: LD50 determined in the mouse (C. S. Weil method)
# Set-up: unit not given here
# Settings: in vivo, po, os
Measured Property: LD50

CCOc1ccc(NC(=O)CCN2CCN(c3ccccn3)CC2)cc1 = 0.92
O=C(CCN1CCN(c2ccccn2)CC1)Nc1c(Cl)cccc1Cl = 1.24
Cc1ccccc1NC(=O)CCN1CCN(c2ccccn2)CC1 = 1.58
O=C(CCN1CCN(c2ccccn2)CC1)Nc1ccccc1Cl = 2.64
CC1CN(c2ccccn2)CCN1CCC(=O)Nc1ccc([N+](=O)[O-])cc1 (stereo not drawn) = 1.2
O=C(CCN1CCN(c2ccccn2)CC1)Nc1ccc(O)c([N+](=O)[O-])c1 = 3.74

---

# Assay Overview: LD50 determined in the mouse (C. S. Weil method)
# Parameters: unit not given here
# Settings: in vivo, ip
# Method: Accordingly, the present invention also features pharmaceutical compositions comprising a pharmaceutically effective amount of a compound having the structural formula (I) as above-defined, or a pharmaceutically acceptable salt thereof, in admixture with conventional pharmaceutically acceptable dileunt or carrier. […] The LD50 of the alkanoylanilides according to the invention was determined in the mouse, both in C. […]
Labelling field: enter 1 (yes) if recorded LD50 is less than 0.7. Enter 0 (no) if it equals or exceeds that cut-off.

COc1cccc(N2CCN(CCC(=O)Nc3ccc(N)cc3)CC2)n1 = 1 (yes)
Cc1cccc(C)c1NC(=O)CN1CCN(c2ccccn2)CC1 = 0 (no)
COc1cccc(N2CCN(CCC(=O)Nc3ccccc3N)CC2)n1 = 1 (yes)
Cc1cc(C)c(C)c(NC(=O)CCN2CCN(c3ccccn3)CC2)c1C = 1 (yes)
Nc1cccc(NC(=O)CCN2CCN(c3ccccn3)CC2)c1 = 0 (no)
Cc1cccc(C)c1NC(=O)CCN1CCN(c2ccccn2)CC1 = 0 (no)
CC(=O)c1ccc(NC(=O)CCN2CCN(c3ccccn3)CC2)cc1 = 1 (yes)
O=C(CCN1CCN(c2ccccn2)CC1)Nc1cccc(C(F)(F)F)c1 = 1 (yes)

---

# Assay Overview: LD50 determined in the mouse (C. S. Weil method)
# Set-up: unit not given here
# Settings: in vivo, ip
Measured Property: LD50

Nc1ccccc1NC(=O)CCN1CCN(c2ccccn2)CC1 = 3.2
O=C(CCN1CCN(c2ccccn2)CC1)Nc1ccc([N+](=O)[O-])cc1 = 0.47
O=C(CCN1CCN(c2ccccn2)CC1)Nc1ccc(O)c([N+](=O)[O-])c1 = 2.38
Cc1ccccc1NC(=O)CCN1CCN(c2ccccn2)CC1 = 1.01
CC(O)c1ccc(NC(=O)CCN2CCN(c3ccccn3)CC2)cc1 (centres unmarked) = 3.25
